# tgt: T1, human MIP-1-alpha (human, UniProt P10147 24-92, limits assumed)
# T1 construct: also called hMIP-1-alpha
# T1 sequence (looked up): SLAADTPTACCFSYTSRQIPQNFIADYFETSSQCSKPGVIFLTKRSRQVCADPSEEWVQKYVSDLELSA
# assay-protocol: ELISA, coated antigen
recorded-endpoint: ELISA OD (OD450)

[[record]]
binder = "anti-MCP-1 mAb 1.11.1 (antibody, V domains shown) VH: QVQVVQSGAEVKNPGASVKVSCKVSGSTLTELSMHWVRQAPGKGLEWMGGFDPEDGETIYAQKFQGRVTMTEDTSTDTVYMELSSLRSEDTAVYYCATNDFWSGYFDYWGQGTLVTVSS VL: DIVMTQSPDSLAVSLGERATITCKSSQTVLYSSNNKNYLVWYQQKSGQPPKLLIHWASIRESGVPDRFSGSGSGTDFTLTISSLQAEDVAVYYCQQYYSSPWTFGQGTKVEIKR"
numeric_readout = 0.042

[[record]]
binder = "anti-MCP-1 mAb 1.1.1 (antibody, human IgG2, kappa, V domains shown) VH: QVQLVQSGAEVKKPGASVKVSCKVSGYTLTELSMHWVRQAPGNGLEWMGGFDPEDGETIYAQRFQGRVVMTEDPSTDTAYMELSSLRSEDTAVYYCATNEFWSGYFDYWGQGTLVTVSS VL: DIVMTQSPDSLAMSLGERATINCKSSQSVLYSSNNKNYLVWYQQKPGQPPKLLIYWASIRESGVPDRFSSSGSETDFTLTISSLQAEDVAVYYCQQYFSSPWTFGQGTKVEIKR"
numeric_readout = 0.044

[[record]]
binder = "anti-MCP-1 mAb 2.4.1 (antibody, V domains shown) VH: QVQLVQSGAEVKKPGASVKVSCKASGYTFTGYYLHWVRQAPGQGLEWMGWINPYNDGTNYAQKFQGRVTMTRDTSISTAYMELSRLRSDDTAVYYCARDIAAAGAVYFDYWGQGTLVTVSS VL: DIQMTQSPSSLSASVGDRVTITCQASQDITTYLNWYQQKPGKAPKLLIYDASNLETGVPSRFSGSGSGTDFTFTISSLQPEDIATYYCQQYDNLPITFGQGTRLEIKR"
numeric_readout = 0.061

[[record]]
binder = "anti-MCP-1 mAb 5.3.1 (antibody, V domains shown) VH: QVQLVQSGAEVKKPGASVKVSCKVSGYTLSELSMHWVRQAPGKGLEWMGGFDPEDGETIYAQKFQGRVTMTEDTSTDTAYMELSSLRSEDTAVFYCATKREYSGYFDYWGQGTLVTVSS VL: DIVMTQSPDSLAVSLGERATINCKSSQSVLYSSNSKNYLAWFQQKPGQPPKLLIYWASTRESGVPDRFSGSGSGTDFTLTISRLQAEDVAVYSCQQYFITPWTFGQGTKVELKR"
numeric_readout = 0.042

[[record]]
binder = "anti-MCP-1 mAb 1.2.1 (antibody, V domains shown) VH: QVQLVQSGAEVKKPGASVKVSCKVSGYTFTELSMHWVRQAPGKGLEWMGGFDPEDGETSYAQKFRGRVTMTEDTSTDTAHMELSSLRSEDTAVYYCATNDFWSGYFDYWGQGTLVTVSS VL: DIQMTQSPSSVSASVGDRVTITCRASQGIDIYLAWYQQKPGKAPKLLINAASSLQNGVPSRFGGSGSGTDFTLTISGLQPEDFATYYCQLTYFFPWTFGQGTKVEIKR"
numeric_readout = 0.04

